Reference for the values: ChEMBL document CHEMBL3885861

Quick reference: RBC of the listed items.
species on record: Rattus norvegicus; test: Open TG-GATES - Regimen: Single; format: toxicity, organism-based, Sprague-Dawley; parameters: regimen Single, gender Male, age 6 weeks; conditions: in vivo, po, 300 mg/kg, 3 h, tissue Blood, route gavage, dose level Middle
metric_name: RBC (x10_4/ul)

>  <molecule>
C[C@H](CS)C(=O)N1CCC[C@H]1C(=O)O

>  <metric_name>
RBC

>  <units_text>
x10_4/ul

>  <assay_result>
620.8

$$$$
>  <molecule>
O=C(O)c1cn(C2CC2)c2cc(N3CCNCC3)c(F)cc2c1=O

>  <metric_name>
RBC

>  <units_text>
x10_4/ul

>  <assay_result>
579

$$$$
>  <molecule>
Clc1ccccc1CN1CCc2sccc2C1

>  <metric_name>
RBC

>  <units_text>
x10_4/ul

>  <assay_result>
602.2

$$$$
>  <molecule>
O=C(O)c1cc(/N=N/c2ccc(S(=O)(=O)Nc3ccccn3)cc2)ccc1O

>  <metric_name>
RBC

>  <units_text>
x10_4/ul

>  <assay_result>
615.6

$$$$
>  <molecule>
CCc1cc(C(N)=S)ccn1 [ETHIONAMIDE]

>  <metric_name>
RBC

>  <units_text>
x10_4/ul

>  <assay_result>
631.4

$$$$

* * *

species: Rattus norvegicus; test: Open TG-GATES - Regimen: Single; type: toxicity, organism-based, Sprague-Dawley; design: regimen Single, gender Male, age 6 weeks; details: in vivo, po, 1000 mg/kg, 9 h, tissue Plasma, route gavage, dose level High
Quick reference: ALP of the listed items.

>  <molecule>
O=C(O)c1cc(/N=N/c2ccc(S(=O)(=O)Nc3ccccn3)cc2)ccc1O

>  <ALP>
772.2 IU/L

$$$$
>  <molecule>
CCc1cc(C(N)=S)ccn1 [ETHIONAMIDE]

>  <ALP>
641 IU/L

$$$$
>  <molecule>
Clc1ccccc1CN1CCc2sccc2C1

>  <ALP>
1127.2 IU/L

$$$$
>  <molecule>
C[C@H](CS)C(=O)N1CCC[C@H]1C(=O)O

>  <ALP>
691.6 IU/L

$$$$
>  <molecule>
O=C(O)c1cn(C2CC2)c2cc(N3CCNCC3)c(F)cc2c1=O

>  <ALP>
763.8 IU/L

$$$$

* * *

species: Rattus norvegicus; assay: Open TG-GATES - Regimen: Single; format: toxicity, organism-based, Sprague-Dawley; parameters: regimen Single, gender Male, age 6 weeks; settings: in vivo, po, 300 mg/kg, 3 h, tissue Blood, route gavage, dose level Middle
Please mark rule met if the recorded Mono is equal to or greater than 5%, and rule not met if it falls below.

>  <molecule>
O=C(O)c1cn(C2CC2)c2cc(N3CCNCC3)c(F)cc2c1=O [CIPROFLOXACIN]

>  <label_value>
rule met

$$$$
>  <molecule>
O=C(O)c1cc(/N=N/c2ccc(S(=O)(=O)Nc3ccccn3)cc2)ccc1O [SULFASALAZINE]

>  <label_value>
rule not met

$$$$
>  <molecule>
CCc1cc(C(N)=S)ccn1 [ETHIONAMIDE]

>  <label_value>
rule not met

$$$$
>  <molecule>
Clc1ccccc1CN1CCc2sccc2C1 [TICLOPIDINE]

>  <label_value>
rule not met

$$$$

* * *

organism: Rattus norvegicus; test: Open TG-GATES - Regimen: Daily Repeat; format: toxicity, organism-based, Sprague-Dawley; set-up: regimen Daily Repeat, gender Male, age 6 weeks; conditions: in vivo, po, 0 mg/kg, […], tissue Plasma, route gavage, dose level Control, time 14 day
Quick reference: K of the listed items.

>  <smiles_repr>
COc1ccc2c(c1)c(CC(=O)O)c(C)n2C(=O)c1ccc(Cl)cc1

>  <K [meq/L]>
4.8

$$$$
>  <smiles_repr>
Cn1c(=O)c2[nH]cnc2n(C)c1=O.O

>  <K [meq/L]>
4.4

$$$$
>  <smiles_repr>
CCCC(CCC)C(=O)O

>  <K [meq/L]>
3.6

$$$$
>  <smiles_repr>
O=C(O)c1cn(C2CC2)c2cc(N3CCNCC3)c(F)cc2c1=O

>  <K [meq/L]>
4.7

$$$$
>  <smiles_repr>
Clc1ccccc1CN1CCc2sccc2C1

>  <K [meq/L]>
4.4

$$$$
>  <smiles_repr>
COc1ccc(Cc2nccc3cc(OC)c(OC)cc23)cc1OC

>  <K [meq/L]>
4.4

$$$$

* * *

Quick reference: KIDNEY_R of the listed items.
organism: Rattus norvegicus; assay: Open TG-GATES - Regimen: Single; format: toxicity, organism-based, Sprague-Dawley; design: regimen Single, gender Male, age 6 weeks; conditions: in vivo, po, 1000 mg/kg, 3 h, tissue Kidney, route gavage, dose level High
metric_name: KIDNEY_R (g)

>  <compound>
Clc1ccccc1CN1CCc2sccc2C1

>  <units_text>
g

>  <assay_result>
0.9

$$$$
>  <compound>
O=C(O)c1cn(C2CC2)c2cc(N3CCNCC3)c(F)cc2c1=O

>  <units_text>
g

>  <assay_result>
0.8

$$$$
>  <compound>
C[C@H](CS)C(=O)N1CCC[C@H]1C(=O)O

>  <units_text>
g

>  <assay_result>
1

$$$$
>  <compound>
O=C(O)c1cc(/N=N/c2ccc(S(=O)(=O)Nc3ccccn3)cc2)ccc1O

>  <units_text>
g

>  <assay_result>
1

$$$$
>  <compound>
CCc1cc(C(N)=S)ccn1 [ETHIONAMIDE]

>  <units_text>
g

>  <assay_result>
1

$$$$

* * *

organism: Rattus norvegicus; experiment: Open TG-GATES - Regimen: Single; format: toxicity, organism-based, Sprague-Dawley; design: regimen Single, gender Male, age 6 weeks; details: in vivo, po, 0 mg/kg, 3 h, tissue Plasma, route gavage, dose level Control
metric_name: CRE (mg/dL)

>  <compound>
O=C(O)c1cc(/N=N/c2ccc(S(=O)(=O)Nc3ccccn3)cc2)ccc1O [SULFASALAZINE]

>  <metric_name>
CRE

>  <units_text>
mg/dL

>  <assay_result>
0.4

$$$$
>  <compound>
Clc1ccccc1CN1CCc2sccc2C1 [TICLOPIDINE]

>  <metric_name>
CRE

>  <units_text>
mg/dL

>  <assay_result>
0.4

$$$$
>  <compound>
CCc1cc(C(N)=S)ccn1 [ETHIONAMIDE]

>  <metric_name>
CRE

>  <units_text>
mg/dL

>  <assay_result>
0.6

$$$$
>  <compound>
CN(C)CCC=C1c2ccccc2CCc2ccccc21 [AMITRIPTYLINE]

>  <metric_name>
CRE

>  <units_text>
mg/dL

>  <assay_result>
0.2

$$$$
>  <compound>
NC(=O)N/N=C/c1ccc([N+](=O)[O-])o1 [NITROFURAZONE]

>  <metric_name>
CRE

>  <units_text>
mg/dL

>  <assay_result>
0.2

$$$$
>  <compound>
O=C(O)c1cn(C2CC2)c2cc(N3CCNCC3)c(F)cc2c1=O [CIPROFLOXACIN]

>  <metric_name>
CRE

>  <units_text>
mg/dL

>  <assay_result>
0.4

$$$$

* * *

species: Rattus norvegicus; assay: Open TG-GATES - Regimen: Single; format: toxicity, organism-based, Sprague-Dawley; set-up: regimen Single, gender Male, age 6 weeks; settings: in vivo, po, 0 mg/kg, 6 h, tissue Plasma, route gavage, dose level Control
Criterion: TG strictly under 60 mg/dL. Met: true (1). Not met: false (0).

>  <molecule>
CSc1ccc2c(c1)N(CCC1CCCCN1C)c1ccccc1S2 (stereo not given) [THIORIDAZINE]

>  <label_value>
false (0)

$$$$
>  <molecule>
O=C(O)c1cn(C2CC2)c2cc(N3CCNCC3)c(F)cc2c1=O [CIPROFLOXACIN]

>  <label_value>
true (1)

$$$$
>  <molecule>
CC(=O)Oc1ccccc1C(=O)O [ASPIRIN]

>  <label_value>
false (0)

$$$$
>  <molecule>
COc1ccc(Cc2nccc3cc(OC)c(OC)cc23)cc1OC [PAPAVERINE]

>  <label_value>
true (1)

$$$$

* * *

species on record: Rattus norvegicus; assay: Open TG-GATES - Regimen: Single; format: toxicity, organism-based, Sprague-Dawley; parameters: regimen Single, gender Male, age 6 weeks; details: in vivo, po, 0 mg/kg, 6 h, tissue Plasma, route gavage, dose level Control
Criterion: AST strictly under 70 IU/L. Met: yes. Not met: no.

>  <compound>
CN(C)CCC=C1c2ccccc2CCc2ccccc21

>  <label_value>
no

$$$$
>  <compound>
Cn1c(=O)c2[nH]cnc2n(C)c1=O.O

>  <label_value>
no

$$$$
>  <compound>
CSc1ccc2c(c1)N(CCC1CCCCN1C)c1ccccc1S2 (stereo unspecified)

>  <label_value>
yes

$$$$
>  <compound>
O=C(O)c1cc(/N=N/c2ccc(S(=O)(=O)Nc3ccccn3)cc2)ccc1O

>  <label_value>
yes

$$$$
>  <compound>
COc1ccc(Cc2nccc3cc(OC)c(OC)cc23)cc1OC

>  <label_value>
no

$$$$
>  <compound>
NC(=O)N/N=C/c1ccc([N+](=O)[O-])o1

>  <label_value>
no

$$$$
>  <compound>
C[C@H](CS)C(=O)N1CCC[C@H]1C(=O)O

>  <label_value>
yes

$$$$
>  <compound>
NC(=O)N1c2ccccc2C=Cc2ccccc21 [CARBAMAZEPINE]

>  <label_value>
yes

$$$$
>  <compound>
CCc1cc(C(N)=S)ccn1 [ETHIONAMIDE]

>  <label_value>
yes

$$$$
